Assay: yeast transport mutant growth inhibition pilot in 384-well plates, post-Golgi transport modulator project (AID 636)
Conditions: absorbance 615 nm, about 18 h, hits give high values
Recorded inhibition, one value per entry.
Answer format: numeric, % implied, no suffix.

Reported inhibition, compound c1ccc(C2CC3CC(c4ccco4)N2O3)cc1 (centres undefined) : ____
-0.4

###

Molecular target: Pantothenate synthetase (Mycobacterium tuberculosis (strain ATCC 25618 / H37Rv))
Experiment: Coupled enzyme confirmation of inhibitors against recombinant Mtb PanC (AID 375);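 also: 0% = full reaction with vehicle and 100% = no enzyme background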
Details: coupled enzyme assay; at 10 µM, hits give high values
Would you mind labelling by inhibition? At or over 3% is class 1, under is class 0.

Recorded results for 8 compounds are shown here.
Could you tell me if the measured inhibition of C#CCN(C)C(C)Cc1ccccc1 (configuration not stated) reaches 3% or more?
class 1

Could you tell me if the measured inhibition of CC(NC(=O)Cc1cccs1)c1ccc2c(c1)OCO2 (configuration not stated) reaches 3% or more?
class 0

Could you tell me if the measured inhibition of COC(=O)c1nc(N)sc1-c1ccccc1 reaches 3% or more?
class 0

Could you tell me if the measured inhibition of CCN(Cc1nc2ccccc2c(=O)[nH]1)Cc1nc2cc(OC)c(OC)cc2c(=O)[nH]1 reaches 3% or more?
class 0

Could you tell me if the measured inhibition of O=C(NCc1cccnc1)c1ccc(Cl)c(Cl)c1 reaches 3% or more?
class 0

Could you tell me if the measured inhibition of CCOc1cc(C2C3=C(CCCC3=O)N(C)C3=C2C(=O)CCC3)cc(Cl)c1O reaches 3% or more?
class 0

Could you tell me if the measured inhibition of COc1ccc(C)cc1S(=O)(=O)N1CCN(S(=O)(=O)c2cc(C)ccc2OC)CC1 reaches 3% or more?
class 1

Could you tell me if the measured inhibition of C#CC(CO)N(CCN(Cc1ccccc1)C(C#C)CO)Cc1ccccc1 (configuration not stated) reaches 3% or more?
class 1

More entries:
Could you tell me if the measured inhibition of COc1ccc(-c2cc(N3CCCC3)n3ncnc3n2)cc1 reaches 3% or more?
class 1

Could you tell me if the measured inhibition of Cc1nc2cc(NC(=O)N3c4ccccc4CC3C)ccc2o1 (configuration not stated) reaches 3% or more?
class 0

Could you tell me if the measured inhibition of CCOc1ccccc1NC(=O)C1CCCN(C(=O)NCc2ccccc2)C1 (configuration not stated) reaches 3% or more?
class 1

###

Molecular target: Pantothenate synthetase (Mycobacterium tuberculosis (strain ATCC 25618 / H37Rv))
Assay: Coupled enzyme confirmation of inhibitors against recombinant Mtb PanC (AID 375);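 also: 0% = full reaction with vehicle and 100% = no enzyme background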
Conditions: coupled enzyme assay; at 10 µM, hits give high values
Recorded inhibition, one value per entry.
Answer format: numeric, % implied, no suffix.

Recorded results for 4 molecules are shown here.
Reported inhibition, molecule CC1=C(C(N)=O)C(c2ccc(Cl)cc2Cl)n2ncnc2N1 (stereo not given) : ____
0

Reported inhibition, molecule CC(C)c1nnc(NC(=O)c2ccc(N3C(=O)CCC3=O)cc2)s1 : ____
0

Reported inhibition, molecule CC(=O)N(C)C1(c2nnnn2CCOC(=O)Nc2cccc3ccccc23)CCCC1 : ____
0

Reported inhibition, molecule COc1ccc(CC(=O)Nc2ccc(OC)c(NC(=O)c3ccco3)c2)cc1 : ____
7

More entries:
Reported inhibition, molecule O=c1[nH]c2ccc(S(=O)(=O)N3CCN(C4CCCCC4)CC3)cc2[nH]c1=O : ____
1
